Hey, just so you know, these numbers are from PubChem BioAssay.

# TEST_SUMMARY: S. cerevisiae growth modulation with rapamycin, primary screen, strain BY4716, OD600, 96 h (AID 1091); further: test concentration not given here
# MEASUREMENT_PARAMETERS: called active from +8 up or from −8 down
Calls of active or inactive are those of the source.
Permitted responses: true for active, false for inactive

QUERY: Query: recorded result category for COC(=O)[C@]1(CCC(=O)OC(C)(C)C)N=C(c2ccc(OCCCO)cc2)O[C@@H]1c1ccccc1CN=[N+]=[N-] in this test
RESULT: true

QUERY: Query: recorded result category for CN(C)CCCCCCNC(=O)[C@H]1C[C@H]2C(=O)N[C@@H](CCCCN)C(=O)N2[C@H]1c1cccc(OCCO)c1 in this test
RESULT: false

QUERY: Query: recorded result category for COc1ccccc1CN1C(=O)c2ccccc2[C@@H](C(=O)NC2CC2)[C@@H]1c1ccc(CO)cc1 in this test
RESULT: false

QUERY: Query: recorded result category for [N-]=[N+]=Nc1ccccc1[C@@H]1OC(c2ccc(OCCCO)cc2)=N[C@]1(Cc1ccccc1)C(=O)N1CCOCC1 in this test
RESULT: false

QUERY: Query: recorded result category for CCCc1cc2c(n1Cc1cc(F)cc(F)c1)C(C)C1CN(C(=O)c3ccccc3)C(C)(C(=O)OC)C21 (stereo unspecified) in this test
RESULT: false

QUERY: Query: recorded result category for O=C1[C@@]23C=C(Br)[C@H](C[C@@H]2CCOC3)[C@@]12CO2 in this test
RESULT: false

QUERY: Query: recorded result category for CO[C@H]1O[C@H](CO)[C@@H](OC(=O)Nc2ccc(Oc3ccccc3)cc2)[C@H](OC(=O)Nc2ccc3c(c2)OCO3)[C@H]1OC(=O)Nc1ccc2c(c1)OCO2 in this test
RESULT: false

QUERY: Query: recorded result category for C=C(C(=O)CC[C@@H](OC(=O)c1cccnc1)c1ccccc1OCCO)C(C)C in this test
RESULT: false

QUERY: Query: recorded result category for CC(C)C[C@@H]1NC(=O)[C@H](C(C)C)NC(=O)[C@@]23C(=O)N[C@@H](Cc4ccccc4)C2[C@H](C)[C@@]2(C)O[C@H]2C3/C=C/CC/C=C/CNC1=O (stereo partly specified) in this test
RESULT: false

QUERY: Query: recorded result category for CN1C(=O)C2C=CC(C(O)c3ccco3)N(Nc3ccccc3)C2C1=O (stereo unspecified) in this test
RESULT: false

QUERY: Query: recorded result category for C=C(CCCC)C(=O)CC[C@@H](OC(=O)c1ccccc1-c1ccccc1C(=O)O)c1ccc(OCCO)cc1 in this test
RESULT: false

QUERY: Query: recorded result category for CCOC(=O)C[C@H]1[C@H](OC(=O)c2ccc(C(=O)c3ccccc3)cc2)[C@@H](NC(=O)c2ccc3ccccc3n2)c2cc(OCCCO)ccc2N1C(=O)c1ccccc1 in this test
RESULT: false

QUERY: Query: recorded result category for CC1(C)[C@@H]2CC(C(O)C3C=CC4C(=O)N(Cc5ccccc5)C(=O)C4N3n3cnnc3)=C[C@H]1C2 (stereo partly specified) in this test
RESULT: false

QUERY: Query: recorded result category for C=C[C@H](OC)[C@@H](OC(=O)Nc1ccc(OC)cc1)c1ccc(O)c(F)c1 in this test
RESULT: false

QUERY: Query: recorded result category for COc1ccc([C@H]2OC[C@@H]3C[C@@H](Cc4ccccc4)C(=O)N32)cc1 in this test
RESULT: false

QUERY: Query: recorded result category for CC1CC/C=C\[C@H]2OC34C=CCN(Cc5ccccc5)C(=O)[C@H]3N(CCCO)C(=O)[C@@H]4C2C(=O)O1 (stereo partly specified) in this test
RESULT: false

* * *

# TEST_SUMMARY: PSAC antagonists in infected red cells, primary screen, cell-based, P. falciparum Indochina, OD700, 18 h (AID 1157)
# MEASUREMENT_PARAMETERS: P. falciparum Indochina infected erythrocytes, osmotic lysis OD700, 18 h; higher = more signal, called active from +8 up or from −8 down
ENDPOINT: z-score
Lab note: jot the number down without any unit.

QUERY: Consider the compound O=C(CS)NCCCCCCNC(=O)[C@@H]1C[C@@H]2C(=O)NCC(=O)N2[C@@H]1c1cccc(OCCO)c1 and give its measured z-score.
RESULT: 0.104

QUERY: Consider the compound C[N+](C)(C)CCCCCCNC(=O)[C@@H]1C[C@@H]2C(=O)N[C@@H](Cc3ccccc3)C(=O)N2[C@@H]1c1cccc(OCCO)c1 and give its measured z-score.
RESULT: 0.349

QUERY: Consider the compound CC(C)C(=C=CC[C@@H](O)c1ccc(OCCO)cc1)C[C@@H](O)c1ccccn1 and give its measured z-score.
RESULT: 0.479

QUERY: Consider the compound CCOC(=O)C[C@H]1[C@H](OC(=O)c2ccccc2-c2ccccc2)[C@@H](NC(=O)CC(C)C)c2cc(OCCCO)ccc2N1C(=O)Cc1ccc(OC)cc1 and give its measured z-score.
RESULT: 0.207

QUERY: Consider the compound C=C(C(=O)CC[C@@H](OC(=O)c1cccnc1)c1ccccc1OCCO)C(C)C and give its measured z-score.
RESULT: 0.601

QUERY: Consider the compound [N-]=[N+]=Nc1ccccc1[C@H]1OC(c2ccc(OCCCO)cc2)=N[C@@]1(CCS(=O)(=O)c1ccccc1)C(=O)NCC(O)CO (stereo not given in full) and give its measured z-score.
RESULT: 2.09

QUERY: Consider the compound CC(C)CNC(=O)[C@@]1(Cc2ccccc2I)c2ccccc2C(=O)N(C2CCCCC2)[C@H]1c1ccc(CO)cc1 and give its measured z-score.
RESULT: 0.183

QUERY: Consider the compound CC(C)N1C(=O)c2ccccc2[C@](C)(C(=O)NCCN2CCOCC2)[C@@H]1c1ccc(CO)cc1 and give its measured z-score.
RESULT: 0.426

QUERY: Consider the compound CCCC=C(CCC)[C@@H](NC(=O)c1cccs1)c1ccc(C(F)(F)F)cc1 and give its measured z-score.
RESULT: -1.39

QUERY: Consider the compound C=CCC(OC(C)=O)[C@@H]1[C@@H](N(Cc2cccc3ccccc23)C(=O)c2ccc(-c3ccccc3)cc2)c2cc(OCCCO)ccc2N1C(=O)c1ccc2ccccc2c1 (stereo not given in full) and give its measured z-score.
RESULT: 0.0644

QUERY: Consider the compound COC(=O)[C@@]1(Cc2ccccc2)[C@H]2c3cc(C(=O)N(C)C)n(Cc4ccsc4Br)c3C[C@H]2CN1C(=O)c1ccccc1 and give its measured z-score.
RESULT: 1.25

QUERY: Consider the compound COc1cc(C(O)C2C=CC3C(=O)NC(=O)C3N2Nc2ccccn2)cc(OC)c1OC (stereo not given) and give its measured z-score.
RESULT: 0.409

QUERY: Consider the compound C[N+](C)(C)CCCCNC(=O)[C@@H]1C[C@@H]2C(=O)N[C@@H](Cc3ccccc3)C(=O)N2[C@@H]1c1cccc(OCCO)c1 and give its measured z-score.
RESULT: 0.13

QUERY: Consider the compound O=C1C[C@]2(c3ccc([N+](=O)[O-])cc3)C(=O)N(CC(F)(F)F)c3cc(CO)ccc3[C@H]2N1C1CCCCC1 and give its measured z-score.
RESULT: 0.133

QUERY: Consider the compound CO[C@H]1O[C@H](CO)[C@@H](OC(=O)Nc2ccc(C(F)(F)F)cc2)[C@H](OC(=O)Nc2ccc3c(c2)OCO3)[C@@H]1OC(=O)Nc1ccc2c(c1)OCO2 and give its measured z-score.
RESULT: 1.77

* * *

# STUDY_TARGET: Torsin-1A (Homo sapiens) (UniProt O14656)
# Sequence (O14656 whole entry, looked up): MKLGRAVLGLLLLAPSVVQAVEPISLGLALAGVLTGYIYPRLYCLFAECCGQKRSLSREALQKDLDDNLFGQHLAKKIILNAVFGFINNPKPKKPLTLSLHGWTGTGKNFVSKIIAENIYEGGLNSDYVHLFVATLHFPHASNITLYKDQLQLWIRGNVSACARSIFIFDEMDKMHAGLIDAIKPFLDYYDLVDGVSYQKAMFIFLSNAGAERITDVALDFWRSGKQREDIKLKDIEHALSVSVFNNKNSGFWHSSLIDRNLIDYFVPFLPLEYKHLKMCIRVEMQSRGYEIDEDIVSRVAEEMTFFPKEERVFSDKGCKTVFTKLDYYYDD
# TEST_SUMMARY: small-molecule binders of mutant TOR1A in lysate, primary screen, cell lysate, small-molecule microarray, COS7 lysate, 635/667 nm fluorescence (AID 1150);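 further: score pools 667 nm emission and signal to noise measuring lysate protein binding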
# MEASUREMENT_PARAMETERS: COS7 hTOR1A mutant lysate, 635 nm fluorescence, higher = more signal
ENDPOINT: composite z-score
Lab note: jot the number down without any unit.

QUERY: Consider the compound COc1cc2c(cc1OC)CN(C(=O)[C@@H]1[C@H]3C(=O)O[C@H](c4ccccc4)[C@H](c4ccccc4)N3[C@H](c3ccc(O)cc3)[C@@]13C(=O)Nc1ccccc13)CC2 and give its measured composite z-score.
RESULT: 0.341

QUERY: Consider the compound CC[C@@H]1C=C(C(=O)O)[C@H](c2ccc(Br)cc2)N1S(=O)(=O)c1ccc(C)cc1 and give its measured composite z-score.
RESULT: 0.233

QUERY: Consider the compound COC(=O)[C@@]1(Cc2ccc(OC)cc2)[C@H]2c3cc(C(=O)N4CCCC4)n(Cc4ccc(C)c(F)c4F)c3C[C@H]2CN1C(=O)c1ccccc1 and give its measured composite z-score.
RESULT: 0.839

* * *

# TEST_SUMMARY: small-molecule microarray binders of probe aNog, primary screen, biochemical, biotinylated probe, 635/667 nm fluorescence (AID 1115);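 further: probe is biotinylated aNog protein used at 0.15 µg/mL for 1 h at 4 C; z-score combines 667 nm fluorescence of each spot with its signal to noise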
# MEASUREMENT_PARAMETERS: higher = more signal
Can you tell me composite z-score for the items I'm about to list?

QUERY: Consider the compound C=C(COC)C(=O)CC[C@@H](OC(C)=O)c1ccc(CO)o1 and give its measured composite z-score.
RESULT: 0.0139

QUERY: Consider the compound CCC(CC)C(O)C1C=CC2C(=O)NC(=O)C2N1Nc1ccc(Cl)cc1Cl (stereo unspecified) and give its measured composite z-score.
RESULT: -0.452

QUERY: Consider the compound C[N+](C)(C)CCCCNC(=O)[C@H]1C[C@H]2C(=O)N3CCC[C@H]3C(=O)N2[C@H]1c1cccc(OCCO)c1 and give its measured composite z-score.
RESULT: 0.0043

QUERY: Consider the compound COc1ccc(-c2cc3c(c(-c4ccc(Oc5ccccc5)cc4)n2)[Si](C(C)C)(C(C)C)OC3)cn1 and give its measured composite z-score.
RESULT: -0.224

QUERY: Consider the compound CCC[C@@H]1C[C@@]1(CCC)[C@@H](NC(=O)c1ccccc1)c1cccc(Cl)c1 and give its measured composite z-score.
RESULT: 0.311

QUERY: Consider the compound C=CC[C@]1(C(=O)NCc2ccccc2)N=C(c2ccc(OCCCO)cc2)O[C@H]1c1ccccc1N=[N+]=[N-] and give its measured composite z-score.
RESULT: -0.572
